*1 amine or outer side, *2 acyl side, *3 side chain or, on linkers, in order; H or OH if unused. Where a SMILES comes first, the peptide text is derived from it. Bridges are numbered along the chain shown (N, C = ends). [ ]: non-standard residue; d: D form. 2Nal = N[C@@H](Cc1ccc2ccccc2c1)C(=O)O; AEF = NCCOc1ccc(C[C@H](N)C(=O)O)cc1; X1 = O=C(Cc1ccc(CN[*:1])cc1)[*:2]; 3Pal = N[C@@H](Cc1cccnc1)C(=O)O; αMeL = CC(C)C[C@](C)(N)C(=O)O; Dab = NCC[C@H](N)C(=O)O
Endpoint: IC50. System: UniProt:Q5VWK5. Items follow.
Could you give me the number in nM? Just the number is fine.

Quick one: IC50 of "CNC(=O)[C@H](Cc1cccnc1)NC(=O)[C@H](CCN)NC(=O)[C@@H]1CCC(=O)NCc2ccc(cc2)CC(=O)N[C@@H](C)C(=O)N[C@H]2CCC(=O)NCC[C@H](NC(=O)[C@H](CCC(N)=O)NC(=O)[C@H](Cc3c[nH]c4ccccc34)NC2=O)C(=O)N[C@@H](Cc2c[nH]c3ccccc23)CC(=O)N[C@@H](Cc2ccc3ccccc3c2)C(=O)NC(C)(C)C(=O)N1" ?
4.2

Quick one: IC50 of "CNC(=O)[C@H](Cc1cccnc1)NC(=O)[C@H](CCN)NC(=O)[C@@H]1CCC(=O)NCc2ccc(cc2)CC(=O)N[C@@H](CO)C(=O)N[C@H]2CCC(=O)NCC[C@H](NC(=O)[C@H](CCC(N)=O)NC(=O)[C@H](Cc3c[nH]c4ccccc34)NC2=O)C(=O)N[C@@H](Cc2ccc(OCCN)cc2)C(=O)N[C@@H](Cc2ccc3ccccc3c2)C(=O)N[C@@](C)(CC(C)C)C(=O)N1" ?
0.0098

Quick one: IC50 of CC(C)C[C@]1(C)NC(=O)[C@H](Cc2ccc3ccccc3c2)NC(=O)[C@H](Cc2ccc(OCCN)cc2)NC(=O)[C@@H]2CCNC(=O)CC[C@H](NC(=O)[C@H](CO)NC(=O)Cc3ccc(cc3)CNC(=O)CC[C@@H](C(=O)N[C@@H](CCN)C(=O)N[C@@H](Cc3c[nH]cn3)C(=O)N[C@@H](Cc3cccnc3)C(N)=O)NC1=O)C(=O)N[C@@H](Cc1c[nH]c3ccccc13)C(=O)N[C@@H](CCC(N)=O)C(=O)N2 [Compound 12] ([X1]SEWQ[Dab][AEF][2Nal][αMeL]E[Dab]H[3Pal]-NH2; lactam 3-6, N-10) ?
0.057
